This section presents sequences with their documented binding signal values.
# target: OsSMF1 (Oryza sativa, UniProt Q6ZLB0 1-436)
# Sequence: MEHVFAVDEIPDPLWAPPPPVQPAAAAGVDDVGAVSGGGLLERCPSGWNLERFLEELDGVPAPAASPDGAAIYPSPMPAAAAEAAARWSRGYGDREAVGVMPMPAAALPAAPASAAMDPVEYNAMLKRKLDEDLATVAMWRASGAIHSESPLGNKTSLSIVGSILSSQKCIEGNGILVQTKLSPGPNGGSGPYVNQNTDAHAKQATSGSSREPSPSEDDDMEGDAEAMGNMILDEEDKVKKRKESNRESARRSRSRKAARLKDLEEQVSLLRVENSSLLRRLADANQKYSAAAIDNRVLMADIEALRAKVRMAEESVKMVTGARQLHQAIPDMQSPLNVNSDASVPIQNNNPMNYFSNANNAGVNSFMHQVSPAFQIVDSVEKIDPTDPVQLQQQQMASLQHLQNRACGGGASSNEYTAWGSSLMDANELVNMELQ
# assay_info: protein-binding microarray (RPBM); PBS, 2% BSA, 51.3 ng/ul salmon testes DNA, 50 uM zinc acetate, 200 nM TF, 25 C, 1 h; high values mean tight binding
# test_conditions: protein: recombinant; tags: N-terminal polyhistidine and DsRed monomer fusion (pET32a); chain copies: 2; label: CyDye5-dUTP incorporated in the synthesized complementary strand; 3' TTTTT single-stranded linker to array surface; dsDNA, one strand shown
In all, about 39,000 sequences were measured (“fluorescence intensity (a.u.)”: median about 4,300, highest 2% from about 39,000 on). This is one part of a sample in which the highest values are shown more often than they occur.
reported_property: binding signal

[[record]]
sequence_entry = "TGGTACAAGGATTTGTCCTGTCAACATGGCAATCCTCTGCCGGAGTCACCTAGTGCAG"
result = "3360 fluorescence intensity (a.u.)"

[[record]]
sequence_entry = "GGAGGCGGCGGCGACGAGGAGGGGCGTGGGCGGCGGCGGCCGGAGTCACCTAGTGCAG"
result = "3660 fluorescence intensity (a.u.)"

[[record]]
sequence_entry = "AAAGGAAAGGCGCGTCACGGCGTCAGACGAGACGACGACGCGGAGTCACCTAGTGCAG"
result = "3340 fluorescence intensity (a.u.)"

[[record]]
sequence_entry = "TTATGGACTGATATGGGCCGTTGGATTGGTTTCGGTTTTGCGGAGTCACCTAGTGCAG"
result = "5480 fluorescence intensity (a.u.)"

[[record]]
sequence_entry = "GCATCGCCATCGCCGCGTGGTGGCGCACCATTCGCGTCACCGGAGTCACCTAGTGCAG"
result = "5300 fluorescence intensity (a.u.)"

[[record]]
sequence_entry = "GGAGGAGTGGTCGCCGGGGATCATCGCGCGGCGTCACCGGCGGAGTCACCTAGTGCAG"
result = "3570 fluorescence intensity (a.u.)"

[[record]]
sequence_entry = "CGTCGGCGGCGGCGGAGGGGAGGACGACGTGGTCGACCTCCGGAGTCACCTAGTGCAG"
result = "3590 fluorescence intensity (a.u.)"

[[record]]
sequence_entry = "TCAACCGTATCTGACGCCTGCATTTCCTCTACCAGCCAAGCGGAGTCACCTAGTGCAG"
result = "4010 fluorescence intensity (a.u.)"

[[record]]
sequence_entry = "CATCGCCGCGCGTGCACCAGAGGACCAGACCGACCGGCGTCGGAGTCACCTAGTGCAG"
result = "50200 fluorescence intensity (a.u.)"

